Test system: PGRN polypeptide
method summary: PGRN polypeptide levels in cell lysates and culture supernatants of treated HeLa cells, Western blotting
Type: cell-based, human
recorded conditions: NSAID dose-response, 24 hours, vs DMSO
measured parameter: secreted PGRN polypeptide level

Ask: # lookup: secreted PGRN polypeptide level of `Cc1ccc(Cl)c(Nc2ccccc2C(=O)O)c1Cl`
Result: increased

Ask: Quick one: secreted PGRN polypeptide level of `COc1ccc2cc([C@H](C)C(=O)O)ccc2c1` ?
Result: increased

Ask: Suppose we examine the compound `COc1ccc2c(c1)c(CC(=O)O)c(C)n2C(=O)c1ccc(Cl)cc1` ; what secreted PGRN polypeptide level value has been reported?
Result: increased
